tested on: Zinnia elegans Jacq.; assay: Bioassay of herbicidal activity in greenhouse (further screening); assay type: in vivo; settings: post-emergence; dose 30.0 g a.i./hm^2
property measured: Growth inhibition rate, Post-emergence treatment, Zinnia elegans Jacq. (%)
Answers are plain numbers, in %.

Take a look at these entries with their results.
- Cn1c(C(F)(F)F)cc(=O)n(-c2cc(C3=NOC(C)(C(=O)OCC4CCCO4)C3)c(Cl)cc2F)c1=O (stereo not shown) [Compound 398]: 100
- CCCOC(=O)C1(C)CC(c2cc(-n3c(=O)cc(C(F)(F)F)n(C)c3=O)c(F)cc2Cl)=NO1 (stereo not shown) [Compound 7]: 75
- CCOCCOC(=O)C1(C)CC(c2cc(-n3c(=O)cc(C(F)(F)F)n(C)c3=O)c(F)cc2Cl)=NO1 (stereo not shown) [Compound 15]: 100

Proceed to the following item.
Prompt: State, in one line, measured Growth inhibition rate, Post-emergence treatment, Zinnia elegans Jacq. of CC(C)COC(=O)C1(C)CC(c2cc(-n3c(=O)cc(C(F)(F)F)n(C)c3=O)c(F)cc2Cl)=NO1 (stereo not shown) [Compound 397]
Response: 95
